Cited source: paper PMC4072508

- assayed_target: T1, Bfl-1, Q16548
- T1 chain: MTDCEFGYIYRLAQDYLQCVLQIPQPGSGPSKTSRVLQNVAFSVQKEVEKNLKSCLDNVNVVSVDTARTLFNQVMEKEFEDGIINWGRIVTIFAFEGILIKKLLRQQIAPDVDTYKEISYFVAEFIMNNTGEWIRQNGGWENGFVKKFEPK
- method_notes: peptide SPOT array, c-Myc-tagged receptor at 1 uM or 100 nM, anti-c-Myc-Cy3
Measured SPOT signal as a fraction of Bim BH3's signal on the same receptor and array values are reported for all entries that follow.
Just the number, please.

binder	recorded_number
APGEEDLCAAFNVICDNVGKDWRRLA [FADD]	0.04

Task item: Assign SPOT signal as a fraction of Bim BH3's signal on the same receptor and array to the following record: TAAAAYRGAHDRGRGRTVYNTFRAAA [XXXX]
Reply: 1.4

Task item: Assign SPOT signal as a fraction of Bim BH3's signal on the same receptor and array to the following record: TSRINEVQVNDSLLGDDLLLPAQSTL [SPHKAP]
Reply: 0.03

Task item: Assign SPOT signal as a fraction of Bim BH3's signal on the same receptor and array to the following record: QCPIFRLGDIFRETLDNFSDVAIQGG [P2RX7]
Reply: 0.04
